test: Photocytotoxicity against mouse NIH/3T3 cells assessed as reduction in cell viability preincubated for 24 hrs followed by washout and 1 J/cm2 light irradiation for 24 hrs by resazurin reduction assay; assay type: toxicity, cell-based, NIH3T3
pIC50: −log10 of the molar value.
Label Met when pIC50 is at or above 7; otherwise label Not met.

Enquiry: Quick check, pIC50 >= 7? COC(=O)c1cc2n(n1)CC1c3nc(c(-c4cccc(OC(C)=O)c4)c4ccc([nH]4)c(-c4cccc(OC(C)=O)c4)c4nc(c(-c5cccc(OC(C)=O)c5)c5ccc([nH]5)c3-c3cccc(OC(C)=O)c3)C=C4)C1C2 (stereo unspecified)
Return: Not met

Enquiry: Quick check, pIC50 >= 7? `Oc1cccc(-c2c3nc(c(-c4cccc(O)c4)c4ccc([nH]4)c(-c4cccc(O)c4)c4nc(c(-c5cccc(O)c5)c5ccc2[nH]5)C=C4)C=C3)c1`
Return: Met

Enquiry: Quick check, pIC50 >= 7? OCc1nn2c(c1CO)CC1c3nc(c(-c4cccc(O)c4)c4ccc([nH]4)c(-c4cccc(O)c4)c4nc(c(-c5cccc(O)c5)c5ccc([nH]5)c3-c3cccc(O)c3)C=C4)C1C2 (stereo unspecified)
Return: Not met

* * *

assay: Cytotoxicity against mouse NIH/3T3 cells assessed as reduction in cell viability incubated for 24 hrs under dark condition by resazurin reduction assay; type: toxicity, cell-based, NIH3T3
measured.attribute: IC50 at 24 h

Enquiry: Which IC50 at 24 h reading was recorded for the compound [N-]=[N+]=NCc1cc2n(n1)CC1c3nc(c(-c4cccc(O)c4)c4ccc([nH]4)c(-c4cccc(O)c4)c4nc(c(-c5cccc(O)c5)c5ccc([nH]5)c3-c3cccc(O)c3)C=C4)C1C2 (stereo unspecified) ?
Return: 10.6 µM

Enquiry: Which IC50 at 24 h reading was recorded for the compound `Oc1cccc(-c2c3nc(c(-c4cccc(O)c4)c4ccc([nH]4)c(-c4cccc(O)c4)c4nc(c(-c5cccc(O)c5)c5ccc2[nH]5)C=C4)C=C3)c1` ?
Return: 9.16 µM

Enquiry: Which IC50 at 24 h reading was recorded for the compound OCc1nn2c(c1CO)CC1c3nc(c(-c4cccc(O)c4)c4ccc([nH]4)c(-c4cccc(O)c4)c4nc(c(-c5cccc(O)c5)c5ccc([nH]5)c3-c3cccc(O)c3)C=C4)C1C2 (stereo unspecified) ?
Return: > 10 µM

Enquiry: Which IC50 at 24 h reading was recorded for the compound COC(=O)c1cc2n(n1)CC1c3nc(c(-c4cccc(OC(C)=O)c4)c4ccc([nH]4)c(-c4cccc(OC(C)=O)c4)c4nc(c(-c5cccc(OC(C)=O)c5)c5ccc([nH]5)c3-c3cccc(OC(C)=O)c3)C=C4)C1C2 (stereo unspecified) ?
Return: > 10 µM

Enquiry: Which IC50 at 24 h reading was recorded for the compound OCc1cc2n(n1)CC1c3nc(c(-c4cccc(O)c4)c4ccc([nH]4)c(-c4cccc(O)c4)c4nc(c(-c5cccc(O)c5)c5ccc([nH]5)c3-c3cccc(O)c3)C=C4)C1C2 (stereo unspecified) ?
Return: > 10 µM

Enquiry: Which IC50 at 24 h reading was recorded for the compound COC(=O)c1cc2n(n1)CC1c3nc(c(-c4cccc(O)c4)c4ccc([nH]4)c(-c4cccc(O)c4)c4nc(c(-c5cccc(O)c5)c5ccc([nH]5)c3-c3cccc(O)c3)C=C4)C1C2 (stereo unspecified) ?
Return: > 10 µM

* * *

Answer each item with its documented Activity.
assay: Photostability of compound in DMSO assessed as photodecomposition quantum yield; assay type: physicochemical

Enquiry: Which Activity reading was recorded for the compound COC(=O)c1cc2n(n1)CC1c3nc(c(-c4cccc(O)c4)c4ccc([nH]4)c(-c4cccc(O)c4)c4nc(c(-c5cccc(O)c5)c5ccc([nH]5)c3-c3cccc(O)c3)C=C4)C1C2 (stereo not given) ?
Return: 60.8 10^-6No_unit

Enquiry: Which Activity reading was recorded for the compound OCc1cc2n(n1)CC1c3nc(c(-c4cccc(O)c4)c4ccc([nH]4)c(-c4cccc(O)c4)c4nc(c(-c5cccc(O)c5)c5ccc([nH]5)c3-c3cccc(O)c3)C=C4)C1C2 (stereo not given) ?
Return: 52.7 10^-6No_unit

Enquiry: Which Activity reading was recorded for the compound COC(=O)c1cc2n(n1)CC1c3nc(c(-c4cccc(OC(C)=O)c4)c4ccc([nH]4)c(-c4cccc(OC(C)=O)c4)c4nc(c(-c5cccc(OC(C)=O)c5)c5ccc([nH]5)c3-c3cccc(OC(C)=O)c3)C=C4)C1C2 (stereo not given) ?
Return: 66.9 10^-6No_unit

Enquiry: Which Activity reading was recorded for the compound OCc1nn2c(c1CO)CC1c3nc(c(-c4cccc(O)c4)c4ccc([nH]4)c(-c4cccc(O)c4)c4nc(c(-c5cccc(O)c5)c5ccc([nH]5)c3-c3cccc(O)c3)C=C4)C1C2 (stereo not given) ?
Return: 54.8 10^-6No_unit

Enquiry: Which Activity reading was recorded for the compound [N-]=[N+]=NCc1cc2n(n1)CC1c3nc(c(-c4cccc(O)c4)c4ccc([nH]4)c(-c4cccc(O)c4)c4nc(c(-c5cccc(O)c5)c5ccc([nH]5)c3-c3cccc(O)c3)C=C4)C1C2 (stereo not given) ?
Return: 60.8 10^-6No_unit

The origin of these recorded values is ChEMBL document CHEMBL5365441.
